test system: HepG2 cells; assay: HepG2 cytotoxicity assay; type: cell-based; details: mean
Reported HepG2 cells mean TOX50 maps to class as: one: < 4 µM; two: ≥ 4 µM and < 6 µM; three: ≥ 6 µM

Example entries begin here.
{"Compound": "COc1cc2ccccc2c(CNCCCCCCNCc2c(OC)c(OC)cc3ccccc23)c1OC.CS(=O)(=O)O", "Qualitative Label": "two"}
{"Compound": "CCCOc1ccc2ccccc2c1CNCCCCCCNCc1c(OCCC)ccc2ccccc12.CS(=O)(=O)O", "Qualitative Label": "one"}
{"Compound": "COc1c(CNCCCCCCNCc2c(OC)c(OC)c3ccccc3c2OC)c(OC)c2ccccc2c1OC.CS(=O)(=O)O", "Qualitative Label": "two"}
{"Compound": "COc1cc2nc(N3CCC(CCCC4CCNCC4)CC3)nc(NCc3ccccn3)c2cc1OC.O=C(O)C(F)(F)F", "Qualitative Label": "three"}

For this compound, which bin applies? CC(Cc1ccc(C(=O)Nc2ccc(CC(C)NCCc3cccc(Cl)c3)cc2)cc1)NCCc1ccc(C(F)(F)F)cc1 (stereo not drawn)
two

Returns: class label. Input: CN1CCN(Cc2ccc(OCc3cccc(COc4ccc(CN5CCN(C)CC5)cc4I)c3)c(I)c2)CC1.Cl
two

Quick check: band for Cl.Clc1ccc(CNCCCCCCCNCc2ccc(Cl)c(Cl)c2)cc1Cl
two

Form field 'band' for CCCCCCCN1CC[C@@H](CCCc2ccnc3ccc(OCCN4CCNCC4)cc23)[C@@H](CC)C1.Cl
two

// return the class label for COc1ccc2c(c1CCNCCCCNCCc1c(OC)ccc3c1CCCC3)CCCC2.CS(=O)(=O)O
one

Assign a category based on measured HepG2 cells mean TOX50 for CN(C)CCOc1ccc(NC(=O)NC(C)(C)c2nc(-c3ccc(Cl)c(O)c3)c(-c3ccncc3)[nH]2)cc1.Cl and give only the class name.
three

Sort COc1ccc2ccc(OC)c(CNCCCCCCNCc3c(OC)ccc4ccc(OC)cc34)c2c1.CS(=O)(=O)O into one of the categories.
one

For the record COc1ccc2nc(N=C3NC4(c5ccccc5)NC(=Nc5nc6ccc(OC)cc6[nH]5)NC4(c4ccccc4)N3)[nH]c2c1.O=C(O)C(F)(F)F (stereo not drawn) , report the class its HepG2 cells mean TOX50 corresponds to.
three

The entry to classify is c1ccc(C23N=C(Nc4nc5ccccc5[nH]4)NC2(c2ccccc2)NC(Nc2nc4ccccc4[nH]2)=N3)cc1 (stereo not drawn) ; which class holds it?
three

Dear colleague, I would appreciate it if you could identify the bin for COc1cc2nc(NCc3cccc(CNC(=O)c4ccc(-c5ccc(C(C)=O)cc5)cc4)c3)nc(N)c2cc1OC.O=C(O)C(F)(F)F and reply at your convenience.
three

Which category does the recorded HepG2 cells mean TOX50 put COc1ccc2c(OC)c(CNCCCCCCNCc3ccc4cc(OC)ccc4c3OC)ccc2c1.CS(=O)(=O)O in?
one

# classify by HepG2 cells mean TOX50 band: CCCCCCOc1ccc2ccccc2c1CNCCCCCCNCc1c(OCCCCCC)ccc2ccccc12.CS(=O)(=O)O
one

Lab note: which band did CC(=O)c1ccc2nc[nH]c(=O)c2c1 land in?
three

Record CC(CO)(CO)NCc1cc2c3ccccc3c(CNC(C)(CO)CO)cc2c2ccccc12.CS(=O)(=O)O — which class?
three

Where would Cl.c1ccc2c(Nc3ccc(Cc4ccc(Nc5c6ccccc6nc6ccccc56)cc4)cc3)c3ccccc3nc2c1 land among the classes by reported HepG2 cells mean TOX50?
one

Into which bin does this compound go? Br.C/C=C/C=C/C1=NCCc2cc(OCCC)ccc21
three

Hi, small favor: classify Fc1cc(Cl)ccc1Nc1ccnc2cc(-c3ccc(CN4CCOCC4)o3)ccc12 by its HepG2 cells mean TOX50 when you get a moment.
two

Band for C=CCC1OC(=O)c2cc(OC)cc(OC)c21 (stereo not drawn) ?
one

Any idea which band CC(C)COc1ccc2ccccc2c1CNCCCCCCNCc1c(OCC(C)C)ccc2ccccc12.CS(=O)(=O)O is in?
one

Band for the recorded HepG2 cells mean TOX50 of Cl.Nc1c2c(nc3ccc(NC(=O)CCCCCCc4ccccc4)cc13)CCCC2 ?
two
